biological target: UniProtKB Q9BY41; test: Inhibition of human recombinant HDAC8 using fluorogenic HDAC substrate class 2A preincubated for 30 mins followed by substrate addition and measured after 15 mins by fluorogenic assay
Sequence (Q9BY41 whole entry): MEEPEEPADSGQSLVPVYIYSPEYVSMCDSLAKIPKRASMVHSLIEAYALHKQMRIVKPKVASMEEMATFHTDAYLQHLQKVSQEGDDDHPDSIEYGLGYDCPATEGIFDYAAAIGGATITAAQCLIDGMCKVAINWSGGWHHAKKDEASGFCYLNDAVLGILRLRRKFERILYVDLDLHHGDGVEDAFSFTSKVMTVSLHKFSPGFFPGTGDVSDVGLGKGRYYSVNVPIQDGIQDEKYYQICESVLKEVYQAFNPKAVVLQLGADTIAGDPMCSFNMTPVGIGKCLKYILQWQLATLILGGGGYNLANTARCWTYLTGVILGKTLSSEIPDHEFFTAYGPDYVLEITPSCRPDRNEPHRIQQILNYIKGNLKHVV
Provide the reported pIC50 of each item.
Friendly reminder that pIC50 comes from taking -log10 of the concentration in mol/L.

Given item `CCc1nc(N)nc(N)c1-c1ccc(-c2cn(CCCCCCC(=O)NO)nn2)cc1` , the value recorded as its pIC50 is 6.11

Given item `CCc1nc(N)nc(N)c1-c1ccc(-c2cn(CCCCCC(=O)NO)nn2)cc1` , the value recorded as its pIC50 is 5.55

Given item `CCc1nc(N)nc(N)c1-c1ccc(/C=C/C(=O)NO)cc1` , the value recorded as its pIC50 is 5.74

----------
target: UniProtKB Q9UBN7; test: Inhibition of human recombinant HDAC6 using fluorogenic HDAC substrate 3 preincubated for 30 mins followed by substrate addition and measured after 15 mins by fluorogenic assay
Sequence (Q9UBN7 whole entry): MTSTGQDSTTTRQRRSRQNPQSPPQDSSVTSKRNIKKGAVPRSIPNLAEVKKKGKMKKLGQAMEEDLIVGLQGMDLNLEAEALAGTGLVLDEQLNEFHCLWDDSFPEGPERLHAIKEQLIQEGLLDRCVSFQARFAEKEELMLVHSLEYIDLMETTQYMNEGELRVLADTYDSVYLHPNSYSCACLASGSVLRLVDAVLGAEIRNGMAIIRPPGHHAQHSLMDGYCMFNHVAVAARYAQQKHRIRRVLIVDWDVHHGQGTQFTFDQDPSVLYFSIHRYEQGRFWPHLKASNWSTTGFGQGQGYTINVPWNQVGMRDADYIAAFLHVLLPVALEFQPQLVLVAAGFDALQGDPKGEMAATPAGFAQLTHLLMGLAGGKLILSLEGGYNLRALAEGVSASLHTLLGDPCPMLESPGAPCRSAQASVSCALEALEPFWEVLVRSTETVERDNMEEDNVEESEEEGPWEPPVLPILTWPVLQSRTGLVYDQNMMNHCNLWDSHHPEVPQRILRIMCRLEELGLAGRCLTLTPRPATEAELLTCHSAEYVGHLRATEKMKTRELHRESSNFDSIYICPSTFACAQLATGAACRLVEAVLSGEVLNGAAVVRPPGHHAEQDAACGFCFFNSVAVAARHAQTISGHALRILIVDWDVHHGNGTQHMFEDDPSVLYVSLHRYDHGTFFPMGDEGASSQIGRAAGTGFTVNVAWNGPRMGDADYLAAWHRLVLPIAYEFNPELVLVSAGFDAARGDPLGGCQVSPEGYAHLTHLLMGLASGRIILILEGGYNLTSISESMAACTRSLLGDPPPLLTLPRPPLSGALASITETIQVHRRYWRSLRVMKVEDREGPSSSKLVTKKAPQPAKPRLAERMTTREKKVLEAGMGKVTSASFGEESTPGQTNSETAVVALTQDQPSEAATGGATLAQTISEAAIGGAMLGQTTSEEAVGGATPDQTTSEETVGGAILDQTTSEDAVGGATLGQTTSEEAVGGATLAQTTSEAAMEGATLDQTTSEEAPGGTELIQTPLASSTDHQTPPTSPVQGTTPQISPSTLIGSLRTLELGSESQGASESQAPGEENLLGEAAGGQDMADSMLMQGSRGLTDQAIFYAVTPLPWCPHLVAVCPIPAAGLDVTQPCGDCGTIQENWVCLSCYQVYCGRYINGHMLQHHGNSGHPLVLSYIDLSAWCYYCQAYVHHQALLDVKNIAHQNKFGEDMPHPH
Reported Property: pIC50
Friendly reminder that pIC50 comes from taking -log10 of the concentration in mol/L.

Given item `CCc1nc(N)nc(N)c1-c1ccc(/C=C/C(=O)NO)cc1` , the value recorded as its pIC50 is 6.40

Given item `CCc1nc(N)nc(N)c1-c1ccc(-c2cn(CCCCCCC(=O)NO)nn2)cc1` , the value recorded as its pIC50 is 7.77

Given item `CCc1nc(N)nc(N)c1-c1ccc(-c2cn(CCCCCCCC(=O)NO)nn2)cc1` , the value recorded as its pIC50 is 7.68

Given item `CCc1nc(N)nc(N)c1-c1ccc(-c2ccc(/C=C/C(=O)NO)cc2)cc1` , the value recorded as its pIC50 is 7.14

Given item `CCc1nc(N)nc(N)c1-c1ccc(-c2cn(CCCCCC(=O)NO)nn2)cc1` , the value recorded as its pIC50 is 7.34

----------
molecular target: Histone deacetylase 1 (Homo sapiens, UniProt Q13547); test: Inhibition of human recombinant HDAC1 using fluorogenic HDAC substrate preincubated for 30 mins followed by substrate addition and measured after 15 mins by fluorogenic assay
Sequence (Q13547 whole entry): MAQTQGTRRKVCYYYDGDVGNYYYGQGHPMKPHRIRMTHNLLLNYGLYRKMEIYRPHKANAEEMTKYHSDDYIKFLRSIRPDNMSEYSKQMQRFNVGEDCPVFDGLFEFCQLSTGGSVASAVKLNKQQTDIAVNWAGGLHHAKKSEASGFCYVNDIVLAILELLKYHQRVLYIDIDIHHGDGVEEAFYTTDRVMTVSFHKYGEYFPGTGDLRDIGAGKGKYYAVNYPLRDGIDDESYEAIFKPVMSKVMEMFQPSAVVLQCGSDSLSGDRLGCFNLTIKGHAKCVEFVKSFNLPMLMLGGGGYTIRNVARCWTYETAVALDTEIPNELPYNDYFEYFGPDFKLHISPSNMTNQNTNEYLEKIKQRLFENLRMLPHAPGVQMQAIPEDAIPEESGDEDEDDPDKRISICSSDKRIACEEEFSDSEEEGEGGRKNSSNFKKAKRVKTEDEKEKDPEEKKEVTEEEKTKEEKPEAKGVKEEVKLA
Reported Property: log10 IC50 (log10 of the value in nM)
Values are log10 of IC50 in nM.

Given item `CCc1nc(N)nc(N)c1-c1ccc(-c2ccc(/C=C/C(=O)NO)cc2)cc1` , the value recorded as its log10 IC50 is 3.57

Given item `CCc1nc(N)nc(N)c1-c1ccc(-c2cn(CCCCCC(=O)NO)nn2)cc1` , the value recorded as its log10 IC50 is 2.41

Given item `CCc1nc(N)nc(N)c1-c1ccc(/C=C/C(=O)NO)cc1` , the value recorded as its log10 IC50 is 3.34

Given item `CCc1nc(N)nc(N)c1-c1ccc(-c2cn(CCCCCCC(=O)NO)nn2)cc1` , the value recorded as its log10 IC50 is 1.65

Given item `CCc1nc(N)nc(N)c1-c1ccc(-c2cn(CCCCCCCC(=O)NO)nn2)cc1` , the value recorded as its log10 IC50 is 2.32

----------
test system: MCF7; experiment: cells; format: functional, cell-based; details: Homo sapiens, MCF7, 72 h
Description: Antiproliferative activity in human MCF7 cells assessed as inhibition of cell viability after 72 hrs by MTS assay
Reported Property: IC50 (µM)
Respond with the bare value in µM.

Given item `CCc1nc(N)nc(N)c1-c1ccc(-c2ccc(/C=C/C(=O)NO)cc2)cc1` , the value recorded as its IC50 is 9.3

Given item `CCOC(=O)CCCCCCCn1cc(-c2ccc(-c3c(N)nc(N)nc3CC)cc2)nn1` , the value recorded as its IC50 is 96.6

Given item CCc1nc(N)nc(N)c1-c1ccc(Cl)cc1 [PYRIMETHAMINE] , the value recorded as its IC50 is 453

Given item `CCc1nc(N)nc(N)c1-c1ccc(-c2cn(CCCCCCC(=O)NO)nn2)cc1` , the value recorded as its IC50 is 57.3

Given item `CCc1nc(N)nc(N)c1-c1ccc(-c2cn(CCCCCCCC(=O)NO)nn2)cc1` , the value recorded as its IC50 is 83.3

----------
Provide the reported pIC50 of each item.
tested on: A549; assay: cells; format: functional, cell-based; conditions: Homo sapiens, A549, 72 h
Description: Antiproliferative activity in human A549 cells assessed as inhibition of cell viability after 72 hrs by MTS assay
Friendly reminder that pIC50 comes from taking -log10 of the concentration in mol/L.

Given item `CCc1nc(N)nc(N)c1-c1ccc(-c2cn(CCCCCCC(=O)NO)nn2)cc1` , the value recorded as its pIC50 is 4.18

Given item `CCOC(=O)CCCCCCCn1cc(-c2ccc(-c3c(N)nc(N)nc3CC)cc2)nn1` , the value recorded as its pIC50 is 3.94

Given item `CCc1nc(N)nc(N)c1-c1ccc(-c2cn(CCCCCCCC(=O)NO)nn2)cc1` , the value recorded as its pIC50 is 4.05

Given item `CCc1nc(N)nc(N)c1-c1ccc(-c2ccc(/C=C/C(=O)NO)cc2)cc1` , the value recorded as its pIC50 is 5.00

Just for reference, ChEMBL document CHEMBL4627284 is where these values come from.
